Origin of values: ChEMBL document CHEMBL4011626

Test system: Mycobacterium tuberculosis
METHOD: Inhibition of Bio-A overexpressed in Mycobacterium tuberculosis in presence of anhydrotetracycline after 9 days

SMILES TEXT: CCC(=O)N1CCN(c2ccc(C(C)=O)cc2)CC1
TARGET SYSTEM: Mycobacterium tuberculosis
MIC50: > 50 µM
//
SMILES TEXT: CC(=O)c1ccc(N2CCC(C(=O)c3ccc4c(c3)OCO4)CC2)cc1
TARGET SYSTEM: Mycobacterium tuberculosis
MIC50: > 50 µM
//
SMILES TEXT: CC(=O)c1ccc(N2CCN(C(=O)c3cccc(Cl)c3)CC2)s1
TARGET SYSTEM: Mycobacterium tuberculosis
MIC50: 7.6 µM
//
SMILES TEXT: Cn1nnnc1-c1ccc(N2CCN(C(=O)c3cccc(Cl)c3)CC2)cc1
TARGET SYSTEM: Mycobacterium tuberculosis
MIC50: > 50 µM
//
SMILES TEXT: CN1Cc2cc(N3CCN(C(=O)c4cccc(Cl)c4)CC3)ccc2C1=O
TARGET SYSTEM: Mycobacterium tuberculosis
MIC50: > 50 µM
//
SMILES TEXT: CC(=O)c1ccc(N2CCN(C(=O)c3cccnc3)CC2)cc1
TARGET SYSTEM: Mycobacterium tuberculosis
MIC50: > 50 µM
